Biological target: Human Polymorphonuclear Leukocyte Elastase (Homo sapiens, UniProt P08246)
Construct: Crude extract of human polymorphonuclear leukocytes (PMN) containing elastase activity; from tissue; host or cells: human polymorphonuclear leukocytes (crude extract)
Sequence (P08246 30-267): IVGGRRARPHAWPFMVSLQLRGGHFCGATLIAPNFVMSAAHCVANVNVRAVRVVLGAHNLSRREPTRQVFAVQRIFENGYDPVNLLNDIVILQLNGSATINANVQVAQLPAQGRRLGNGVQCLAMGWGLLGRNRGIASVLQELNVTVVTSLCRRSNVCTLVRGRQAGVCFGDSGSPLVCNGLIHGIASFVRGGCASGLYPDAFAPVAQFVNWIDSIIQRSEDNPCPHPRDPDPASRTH
Assay: Enzyme assay for inhibition of human polymorphonuclear leukocyte elastase via hydrolysis of Boc-AAPAN or Boc-AAPVN
Assay type: biochemical
Conditions: pH 7.5, second order rate constant for inactivation of the enzyme, expressed to the nearest thousand, read-out: Kobs/[I]
property: kinact/KI (M⁻¹ s⁻¹)

Some molecules with known kinact/KI results, for comparison:
[
  {
    "molecule": "CCC[C@@H](NC(=O)N1C(=O)C(CC)(CC)[C@@H]1Oc1ccc(C(=O)NCCN2CCC(O)C2)cc1)c1ccc(C)cc1 (stereo partly shown) [Compound 131]",
    "tgt": "Human Polymorphonuclear Leukocyte Elastase (Homo sapiens, UniProt P08246)",
    "kinact/KI (M⁻¹ s⁻¹)": "1.11e+06"
  },
  {
    "molecule": "CCC[C@@H](NC(=O)N1C(=O)C(CC)(CC)[C@@H]1Oc1ccc(C(=O)OCC[N+](C)(C)[O-])cc1)c1ccc(C)cc1 [Compound 15]",
    "tgt": "Human Polymorphonuclear Leukocyte Elastase (Homo sapiens, UniProt P08246)",
    "kinact/KI (M⁻¹ s⁻¹)": "2.16e+06"
  },
  {
    "molecule": "CCC[C@@H](NC(=O)N1C(=O)C(CC)(CC)[C@@H]1Oc1ccc(CC(=O)N(C)C)cc1)c1ccc(C)cc1 [Compound 67]",
    "tgt": "Human Polymorphonuclear Leukocyte Elastase (Homo sapiens, UniProt P08246)",
    "kinact/KI (M⁻¹ s⁻¹)": 942000
  },
  {
    "molecule": "CCC[C@@H](NC(=O)N1C(=O)C(CC)(CC)[C@@H]1Oc1ccc(C(=O)N2CCOCC2)cc1)c1ccc(C(=O)N2CCOCC2)cc1 [Compound 280]",
    "tgt": "Human Polymorphonuclear Leukocyte Elastase (Homo sapiens, UniProt P08246)",
    "kinact/KI (M⁻¹ s⁻¹)": 577000
  },
  {
    "molecule": "CCC[C@@H](NC(=O)N1C(=O)C(CC)(CC)[C@@H]1Oc1ccc(CC(=O)N2CCOCC2)cc1)c1ccc(C(=O)O)cc1 [Compound 281]",
    "tgt": "Human Polymorphonuclear Leukocyte Elastase (Homo sapiens, UniProt P08246)",
    "kinact/KI (M⁻¹ s⁻¹)": 62000
  }
]

P. CCC[C@@H](NC(=O)N1C(=O)C(CC)(CC)[C@@H]1Oc1ccc(C(=O)N2CCN(C)CC2)cc1)c1ccc2c(c1)OCO2 [Compound 263]
Q. CCC[C@@H](NC(=O)N1C(=O)C(CC)(CC)[C@@H]1Oc1ccc(C(=O)NCCCC[C@H](N)C(=O)O)cc1)c1ccc(C)cc1 [Compound 209]
Asked: Could you tell me which of P and Q has the lower kinact/KI reading? Which one? Tell me its label.
Given back: Q

Origin of measurements: patent EP0595557A1
